molecular target: human TLR9 (Homo sapiens, UniProt Q9NR96); construct: host or cells: HEK293 (TLR9/NF-κB/SEAPorter); test: Human TLR9 reporter gene inhibitory activity assay (NF-κB/SEAP HEK293); format: cell-based; conditions: compound 0.0001 nM (as headed); CpG2006 500 nM
Sequence (Q9NR96 26-1032): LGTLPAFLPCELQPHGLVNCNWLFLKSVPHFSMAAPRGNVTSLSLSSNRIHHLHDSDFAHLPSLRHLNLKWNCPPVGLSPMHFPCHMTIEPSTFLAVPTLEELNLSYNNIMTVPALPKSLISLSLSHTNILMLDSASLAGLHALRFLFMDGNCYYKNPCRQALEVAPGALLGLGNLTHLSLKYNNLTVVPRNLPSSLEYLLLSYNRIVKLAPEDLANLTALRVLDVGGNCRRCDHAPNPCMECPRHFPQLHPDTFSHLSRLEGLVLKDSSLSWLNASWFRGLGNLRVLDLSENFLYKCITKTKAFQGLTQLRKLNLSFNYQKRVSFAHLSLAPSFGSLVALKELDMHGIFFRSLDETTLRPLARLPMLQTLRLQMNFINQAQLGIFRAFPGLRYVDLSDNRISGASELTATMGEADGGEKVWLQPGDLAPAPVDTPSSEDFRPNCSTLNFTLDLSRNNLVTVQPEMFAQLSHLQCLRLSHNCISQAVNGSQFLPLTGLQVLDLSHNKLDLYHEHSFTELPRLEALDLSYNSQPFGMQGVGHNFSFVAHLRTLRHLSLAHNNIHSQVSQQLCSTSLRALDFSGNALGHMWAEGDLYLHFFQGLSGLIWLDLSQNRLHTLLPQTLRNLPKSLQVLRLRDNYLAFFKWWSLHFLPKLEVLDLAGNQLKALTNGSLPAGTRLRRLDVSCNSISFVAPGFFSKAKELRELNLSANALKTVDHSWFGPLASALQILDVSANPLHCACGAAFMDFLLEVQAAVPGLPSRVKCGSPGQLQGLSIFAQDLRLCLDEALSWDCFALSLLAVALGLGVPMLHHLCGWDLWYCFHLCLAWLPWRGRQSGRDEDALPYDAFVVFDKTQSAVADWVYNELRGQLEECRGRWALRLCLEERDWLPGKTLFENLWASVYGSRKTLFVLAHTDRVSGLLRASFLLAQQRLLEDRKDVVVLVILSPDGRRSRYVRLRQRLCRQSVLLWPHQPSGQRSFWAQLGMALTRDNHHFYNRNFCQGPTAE
Measured human TLR9 activity, reporter signal by item
Respond with the number and no other words.

See these solved cases before continuing.
COMPOUND | human TLR9 activity, reporter signal
CCOc1nc(C)c2nc(-c3cncc(F)c3)n(Cc3ccc(CN4C[C@@H]5C[C@H]4CN5C)cc3)c2n1 [Cpd-7] | 0.3816
CCOc1nc(N)c2nc(-c3cncc(F)c3)n(Cc3ccc(CN4C[C@@H]5C[C@H]4CN5C)cc3)c2n1 [Cpd-6] | 0.3816

Specify human TLR9 activity, reporter signal for CCN(CCO)CCCC(C)Nc1ccnc2cc(Cl)ccc12 (stereo not shown) [HCQ, hydroxychloroquine, reference compound] and stop.
0.3549

Specify human TLR9 activity, reporter signal for CCCCOc1nc(N)c2nc(-c3cccnc3)n(Cc3ccccc3)c2n1 [Cpd-5] and stop.
0.3823
